Test: Primary qHTS for delayed death inhibitors of the malarial parasite plastid, 96 hour incubation
Settings: P. falciparum luciferase reporter growth; series mostly up to 28.7 µM
Source text: The goal of this screen is to discover new antimalarial compounds that act by inhibiting the development of the apicoplast in the malarial parasite Plasmodium falciparum. […] We have developed a cell-based assay that measures parasite growth based on the expression of an integrated copy of a firefly luciferase reporter. […] Growth inhibition is detected by a decrease in luciferase activity. […]
Among all 320,000 compounds or so, about 22,000 (6.9%) were called active. Not shown: some 27% with an inconclusive outcome. This excerpt belongs to a sample that is enriched for actives.

molecule | outcome
CC(=O)N1CCc2cc(S(=O)(=O)Nc3ccccc3N3CCN(C)CC3)ccc21 | inactive
CCC(=O)Nc1ccccc1N1CCN(S(C)(=O)=O)CC1 | inactive
CCN(CC)S(=O)(=O)c1ccc(N2CCOCC2)c(NC(=O)C2COc3ccccc3O2)c1 (centres undefined) | inactive
Cc1cc(C)n2nc(SCC(=O)NC(=O)NCc3ccco3)nc2n1 | inactive
